This listing pairs compounds with measured GI50.
- Test system: SK-OV-3
- Protocol description: NCI tumour cell line growth inhibition, 48 h
The source made the active and inactive calls. Rule as the data show it: active = GI50 up to about 1.1 µM and inactive = higher.

Worked set:
O=C1SC(c2ccc(Cl)cc2)(c2ccc(Cl)cc2)c2ccccc21; > 100 µM (inactive)
CCOC(=O)c1c(C)nc2c(c1-c1cn(-c3ccccc3)nc1-c1ccccc1)C(=O)c1ccccc1-2; > 100 µM (inactive)
CSc1nc2c(N)ncnc2n1C; > 100 µM (inactive)
O=C(CCn1[nH]c(=O)c(Cl)c(Cl)c1=O)NNC(=O)C[n+]1ccccc1; > 100 µM (inactive)
O=CNNC(=O)Nc1ccc(Cl)cc1; > 100 µM (inactive)
Cc1ccc2nc(-c3ccc(N4C(=O)C(Cl)C4c4ccc(Cl)cc4)cc3)sc2c1 (centres undefined); 12.7 µM (inactive)
O/N=C1\C/C(=N\O)c2c(Br)sc(Br)c21; 91.8 µM (inactive)
CCOP(=Nc1ccc(N(C)C)cc1)(OCC)OCC; > 100 µM (inactive)

Now take the following compound into account.
C[C@H]1[C@H](C)CC[C@]2(C(=O)OC3OC(CO)C(O)C(O)C3O)CC[C@]3(C)C(=CC[C@@H]4[C@@]5(C)C[C@@H](O)[C@@H]6OC(=O)c7cc(O)c(O)c(O)c7-c7c(cc(O)c(O)c7O)C(=O)OC[C@@]6(CO)[C@@H]5CC[C@]43C)[C@H]12 (some centres undefined) yielded GI50 of 98.6 µM (inactive)

---

- Tested on: DLD-1
- Protocol description: NCI tumour cell line growth inhibition, 48 h
The source made the active and inactive calls. Rule as the data show it: active = GI50 up to about 1.1 µM and inactive = higher.
// one of active, inactive, no free text

Solved cases below.
COc1cccc(CC(C)N)c1 (stereo not given); inactive
NC(CN(O)N=O)C(=O)O (stereo not given); active
CC(C)(C)[Si](OC1CCOC1=O)(c1ccccc1)c1ccccc1 (stereo not given); inactive
COc1cc([C@H]2c3cc4c(cc3O[C@@]3(O)COC(=O)[C@@H]23)OCO4)cc(OC)c1OC; inactive
COc1cc(C2C(Cl)C(=O)N2NC(=O)c2ccc(N)cc2)ccc1O (stereo not given); inactive
NC(=O)c1csc(C2O[C@@H](COP(=O)(O)OP(=O)(O)OC[C@H]3OC(n4cnc5c(N)ncnc54)[C@H](O)[C@@H]3O)[C@H](O)[C@@H]2O)n1 (stereo not given in full); inactive

Lab log entry: `O=c1ccccc2cccc(O)c12` — outcome as called in the assay?
inactive

Record request — test call for CO[C@@]12[C@H](COC(N)=O)C3=C(C(=O)C(C)=C(N)C3=O)N1C[C@H]1[C@@H]2N1C (stereo not given in full)
inactive

Check the results log: what was the call for `CN(C)CCn1cnc2ncccc2c1=O` ?
inactive

// outcome(item) with item = `O=C(O)CN(c1ccccc1)S(=O)(=O)c1ccc(NC(=O)c2ccccc2)cc1`
inactive

Status in this test for Cc1ccc(/N=N/C2S/C(=C(\C#N)c3nc4ccccc4[nH]3)N(c3ccccc3)C2=O)cc1 (stereo not given) ?
inactive

Just curious, what result did C=CC1(CC)/C(=N\O)C(CC)(CC)C(=O)N1O (stereo not given) get here?
inactive

// outcome(item) with item = `CN(C)/C=N\c1cc[nH]c(=O)n1`
inactive

I would be grateful if you could indicate the recorded call for C=C1CC(OC)(C(O)C(=O)N[C@H]2OCO[C@H]3C2O[C@H](C[C@@H](COC)OC)C(C)(C)C3OC)O[C@H](C)[C@@H]1C (stereo not given in full) .
active

Test call for this compound, please: CON(C)C(=O)C(Cc1ccccc1)NC(=O)OCc1ccccc1 (stereo not given)
inactive

Could you check what this test reported for `O=c1[nH]cc(C(F)(C(F)(F)F)C(F)(F)F)c(=O)[nH]1` ?
inactive

What outcome does the record of this test show for `NS(=O)(=O)c1cc2c(cc1Cl)NC(C(=O)NNC(=O)c1ccncc1)=NS2(=O)=O` ?
inactive

Call for entry `Cc1cc2c(c(C(N)=O)c1C)-c1cccc(Cl)c1C2=O` :
inactive

Any idea what this test logged for `Brc1ccc(-c2cc3c(cc2C2SCCS2)OCO3)cc1` ?
inactive

Lab log entry: CC(=O)O[C@H]1C(=O)[C@@]2(C)C(C(OC(=O)c3ccccc3)[C@]3(O)CC(OC(=O)C(O)C(NC(=O)c4ccccc4)c4ccc(C)cc4)C(C)=C1C3(C)C)[C@]1(OC(C)=O)CO[C@@H]1C[C@@H]2O (stereo not given in full) — outcome as called in the assay?
active
